# TEST_TARGET: Solute carrier family 15 member 1 (Homo sapiens)
# Sequence (P46059 whole entry): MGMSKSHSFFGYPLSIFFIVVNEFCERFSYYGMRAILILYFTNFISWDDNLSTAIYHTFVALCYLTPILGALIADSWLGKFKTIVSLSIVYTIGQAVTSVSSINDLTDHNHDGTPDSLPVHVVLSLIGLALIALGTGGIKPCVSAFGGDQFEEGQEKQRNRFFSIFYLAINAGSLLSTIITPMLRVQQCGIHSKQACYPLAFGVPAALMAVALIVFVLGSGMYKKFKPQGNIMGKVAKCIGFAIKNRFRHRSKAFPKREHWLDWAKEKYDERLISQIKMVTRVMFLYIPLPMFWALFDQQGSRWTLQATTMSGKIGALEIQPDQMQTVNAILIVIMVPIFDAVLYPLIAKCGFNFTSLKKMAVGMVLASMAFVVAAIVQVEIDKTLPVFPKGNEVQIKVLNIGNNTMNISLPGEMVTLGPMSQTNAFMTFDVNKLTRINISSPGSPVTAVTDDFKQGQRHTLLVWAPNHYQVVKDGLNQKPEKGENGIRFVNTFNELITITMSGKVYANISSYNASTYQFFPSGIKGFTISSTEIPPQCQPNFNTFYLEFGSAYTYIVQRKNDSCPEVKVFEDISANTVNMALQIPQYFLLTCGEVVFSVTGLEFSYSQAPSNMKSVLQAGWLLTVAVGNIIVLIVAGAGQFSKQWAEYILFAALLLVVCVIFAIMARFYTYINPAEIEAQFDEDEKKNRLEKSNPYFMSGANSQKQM
Where a SMILES comes first, the peptide text is derived from it. [ ]: non-standard residue; d: D form. The star is where a group is joined. NMeA = CN[C@@H](C)C(=O)O; Nle = CCCC[C@H](N)C(=O)O; Orn = NCCC[C@H](N)C(=O)O; Abu = CC[C@H](N)C(=O)O; Cbz = O=C(OCc1ccccc1)*
Known Ki of a selection of molecules
Your answer is read as µM, so omit the unit and give the number.

Examples from the recorded data:
C[C@H](N)C(=O)N[C@@H](Cc1ccc(Cc2ccccc2)cc1)C(=O)O :: 120
CCCC[C@H](NC(=O)[C@H](C)N)C(=O)O (H-Ala-[Nle]-OH) :: 90
CC(C)C[C@H](NC(=O)CN)C(=O)O :: 160
C[C@H](N)C(=O)N[C@@H](CCCN)C(=O)O (H-Ala-[Orn]-OH) :: 980

What measured Ki is associated with CN[C@@H](C)C(=O)N[C@@H](C)C(=O)O (H-[NMeA]-Ala-OH) on Solute carrier family 15 member 1 (Homo sapiens)?
1800

# returns recorded Ki (system: Solute carrier family 15 member 1 (Homo sapiens)) for CC[C@H](NC(=O)[C@H](C)N)C(=O)O (H-Ala-[Abu]-OH)
70

Form: Entry = C[C@H](NC(=O)[C@H](C)NC(=O)OCc1ccccc1)C(=O)O (Cbz-Ala-Ala-OH) | System = Solute carrier family 15 member 1 (Homo sapiens) | Ki = ____
5600

Query for Solute carrier family 15 member 1 (Homo sapiens): what Ki does the record show for O=C(O)[C@H](CO)NC(=O)[C@@H]1CCCN1 (H-Pro-Ser-OH) ?
14000

Observed Ki on Solute carrier family 15 member 1 (Homo sapiens) for C[C@H](N)C(=O)NCC(=O)O (H-Ala-Gly-OH) , please.
140

Find the measured Ki: item CCCC[C@H](N)C(=O)N[C@@H](C)C(=O)O (H-[Nle]-Ala-OH) , target or system Solute carrier family 15 member 1 (Homo sapiens).
140

Form field - read-out: Ki; system: Solute carrier family 15 member 1 (Homo sapiens); submitted item: NCC(=O)N[C@@H](CC(=O)O)C(=O)O (H-Gly-Asp-OH)
350

Find Ki (Solute carrier family 15 member 1 (Homo sapiens)) for the entry O=C(O)[C@H](Cc1ccccc1)NC(=O)[C@@H]1CCCN1 (H-Pro-Phe-OH)
1900

Identify the measured Ki of CC(C)C[C@H](N)C(=O)N[C@@H](C)C(=O)O [LEU-ALA] (H-Leu-Ala-OH) for Solute carrier family 15 member 1 (Homo sapiens).
120
